SYSTEM: Tyrosine-protein kinase Fyn (Homo sapiens) (UniProt P06241)
Sequence (P06241 2-537 limits assumed): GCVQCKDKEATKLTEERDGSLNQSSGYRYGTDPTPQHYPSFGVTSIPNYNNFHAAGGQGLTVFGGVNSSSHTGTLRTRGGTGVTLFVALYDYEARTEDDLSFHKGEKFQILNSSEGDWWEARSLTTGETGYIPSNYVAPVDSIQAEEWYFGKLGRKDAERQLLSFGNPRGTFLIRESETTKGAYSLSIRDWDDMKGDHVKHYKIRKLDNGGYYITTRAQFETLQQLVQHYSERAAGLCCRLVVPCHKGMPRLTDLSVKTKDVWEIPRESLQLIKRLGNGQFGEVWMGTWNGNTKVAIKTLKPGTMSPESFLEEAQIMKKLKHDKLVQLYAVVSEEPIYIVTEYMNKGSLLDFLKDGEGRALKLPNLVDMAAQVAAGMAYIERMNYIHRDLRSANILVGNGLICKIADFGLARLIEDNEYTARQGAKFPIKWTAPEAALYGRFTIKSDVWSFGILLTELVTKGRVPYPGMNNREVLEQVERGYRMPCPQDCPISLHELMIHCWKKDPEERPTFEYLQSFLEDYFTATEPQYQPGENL
TEST PARAMETERS: at 0.1 µM
Description: GSK_PKIS: FYN mean inhibition at 0.1 uM [Nanosyn]
READOUT: inhibition (%)
Write down the numeric answer in % and omit the unit.

In: Entry under review: COc1cc(/C=N/Nc2ncnc3c2cnn3C(C)C)ccc1O . Reported inhibition?
Out: 8.53

In: Please do the same for c1ccc(Cc2nc3ccc(Nc4ncnc5ccccc45)cc3[nH]2)cc1 as well.
Out: 1.56

In: Moving on to the next compound: Cc1ccc(O)cc1Nc1ccnc2ccc(S(C)(=O)=O)cc12
Out: 92.4

In: Next entry: ON=C1CCc2cc(-c3nc(C4CCNCC4)[nH]c3-c3ccncc3)ccc21
Out: 2.09

In: Could you do the same for COc1cccc(-n2ncc3c(N/N=C/c4ccc(S(C)(=O)=O)cc4)ncnc32)c1 , please?
Out: 32.4

In: Request: CS(=O)(=O)CCNCc1nc(-c2ccc3ncnc(Nc4ccc(OCc5cccc(C(F)(F)F)c5)cc4)c3c2)cs1
Out: 1.59

In: Same thing, different compound: Nc1ccc(C#Cc2cncnc2Nc2ccc(OCc3cccc(F)c3)c(Cl)c2)cc1
Out: 1.67

In: Next record, please: O=C(Nc1ccc(Oc2ccc3[nH]c(NC(=O)c4ccco4)nc3c2)cc1)Nc1cc(C(F)(F)F)ccc1F
Out: -1.01

In: What about this compound? Cc1cc(Cl)cc2c1NC(=O)C2=NNc1ccc(S(N)(=O)=O)cc1
Out: 0.94

In: Would you mind doing COc1cc2ncn(-c3cc(OCc4ccccc4S(C)(=O)=O)c(C#N)s3)c2cc1OC as well?
Out: 30.9
